Hi there, I'd appreciate the recorded Kd for every entry that follows.
# SYSTEM UNDER TEST: T1, RSV F ectodomain stabilized in the postfusion conformation (F ΔFP), subtype B (Respiratory syncytial virus subtype B, UniProt P13843 26-109; P13843 147-524)
# T1 construct: extracellular domain; trimer; also called Postfusion subtype B; postF subtype B
# MEASUREMENT DESCRIPTION: BLI, IgG on AHQ sensor, 100 nM antigen

Prompt: Which Kd value belongs to ADI-14466 (antibody, V domains shown, full-length IgG (yeast-expressed); also called Antibody Number 29; Ab# 29) VH: QVQLVQSGAEAKKPGEPLRISCKGSGYTFSSYWISWVRQRPGERLEWMGRIDPSDSYAYSSPSFQGHVTFSADKSSNTAFLQWSSLQASDTAIYYCARHKENYDFWDFWGQGTMVTVSS VL: ETTLTQSPDSLAVSLGERATINCRSSQPILFNPINKLSLAWYQLKPGQPPKLLISWASTREPGVPDRFNGSGSGTVFTLTISSLQPEDVAVYVCQQYFTSTFFGPGTKVEIK ?
Completion: 0.169 nM

Prompt: Also ADI-14483 (antibody, V domains shown, full-length IgG (yeast-expressed); also called Antibody Number 44; Ab# 44) VH: QVQLVQSGGRLVKPGGSLRLSCGMSGFGFSSYRMNWVRQAPGKGLEWISSISASSSYTDYANSVKGRFTISRDGANLFLQMNSLRVEDTAVYYCARDWGGHSIFGAVQDLWGQGTLVTVSS VL: QSVLTQPPSVSGAPGQRVTISCSGSSSNIGAGYDVHWYQQLPGTAPKLLIYGNTNRPSGVPDRFSGSKSGTSASLAITGLQAEDEADYYCQSYDRSLSQVFGAGTKVTVL ?
Completion: 20 nM

Prompt: Also ADI-14491 (antibody, V domains shown, full-length IgG (yeast-expressed); also called Antibody Number 52; Ab# 52) VH: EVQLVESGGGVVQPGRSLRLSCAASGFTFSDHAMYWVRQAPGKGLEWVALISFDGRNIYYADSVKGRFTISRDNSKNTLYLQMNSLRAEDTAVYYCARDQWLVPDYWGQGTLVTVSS VL: QSVLTQPASVSGSPGQSITISCTGTSSDVGGYNYVSWYQQHPGNAPKLMIYEVSKRPSGVPDRFSGFKSGNTASLTVSGLQAEDEADYYCSSYAGSNSVFGTGTKVTVL ?
Completion: 0.158 nM
